- TARGET: Ubiquitin-conjugating enzyme E2 N (Homo sapiens) (UniProt P61088)
- Sequence (P61088 whole entry, looked up): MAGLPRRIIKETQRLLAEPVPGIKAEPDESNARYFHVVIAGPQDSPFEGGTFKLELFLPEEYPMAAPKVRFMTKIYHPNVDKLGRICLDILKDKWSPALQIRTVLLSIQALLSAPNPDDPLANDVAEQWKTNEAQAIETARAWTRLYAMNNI
- ASSAY_PROCEDURE: retested blockers of UBC13 chain formation – biochemical, TR-FRET, single concentration, confirmation (AID 488859)
- PROTOCOL_CONDITIONS: UBC13 polyubiquitination, at 10 µM, active compounds read high
In all, about 1,400 compounds went through this assay and about 970 (69%) were called active. Roughly 5% stayed inconclusive and do not appear here. So high a share suggests a set chosen from earlier hits. Only a sample is shown.

[
  {
    "COMPOUND": "CC(=O)NC(=S)NNC(=O)c1ccc(Br)cc1",
    "inhibition [%]": 89.8
  },
  {
    "COMPOUND": "Cc1c(CN2CCC(CO)(CCOc3ccccc3)CC2)[nH]c2ccc(Cl)cc12",
    "inhibition [%]": 74
  },
  {
    "COMPOUND": "CC1CN(C(=O)CCC(=O)NCCCN2CCC(Cc3ccccc3)CC2)c2cc(Cl)ccc2O1 (stereo unspecified)",
    "inhibition [%]": 87.8
  },
  {
    "COMPOUND": "OCCNc1nc(Nc2ccc(Cl)c(Cl)c2)nc2ccccc12",
    "inhibition [%]": 92
  },
  {
    "COMPOUND": "CSCCC(NC(=O)c1ccc(Cl)cc1Cl)C(=O)NNC(=O)c1csc(N2CCOCC2)n1 (stereo unspecified)",
    "inhibition [%]": 55.6
  },
  {
    "COMPOUND": "O=S(=O)(c1ccc(NC(=S)NN=C(C2CC2)C2CC2)cc1)N1CCOCC1",
    "inhibition [%]": 60.4
  }
]
